# assay protocol: amyloid nucleation score (Sup35N fusion, yeast selection) (log enrichment); library NNK3; higher = more nucleation; inactive = no reads after selection;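 also: zero at mode of non-aggregating sequences after 7 days selection at 30°C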
measured attribute: amyloid nucleation score

Some solved entries appear below for comparison.
>  <substance>
KAAEDMRGFHCGARKSIRVD

>  <amyloid nucleation score>
inactive

$$$$
>  <substance>
VDLRSLSPGYIDFTVISPLL

>  <amyloid nucleation score>
-0.952

$$$$
>  <substance>
FRFSGWLCWSTALPILVRKD

>  <amyloid nucleation score>
inactive

$$$$
>  <substance>
RKSGYFP

>  <amyloid nucleation score>
inactive

$$$$
>  <substance>
QISEFKDVLLCVCVKISLGR

>  <amyloid nucleation score>
1.7

$$$$

Recorded amyloid nucleation score (substance LVIIQCSNRGVSKYRLVGTD ): 1.82

Data point: AYWESNSIPR ; amyloid nucleation score = inactive

Form: substance = RSIVNSRALGLAADRRLEFS ; amyloid nucleation score = inactive

Entry TPVMRSVNMMVLKTI — recorded amyloid nucleation score = inactive

Note to self: amyloid nucleation score recorded for SAMCICLICALGVCPTMDGA was 2.5

Briefly, amyloid nucleation score measured for FLYYIPWDYL : inactive

GET /value?item= CAITAQARV &field=amyloid nucleation score returns inactive

Memo: GHLMGETTY , reported amyloid nucleation score: inactive

Lab note: measured amyloid nucleation score of FVFSRNG was inactive

amyloid nucleation score in this record for THLCIEMLRM : -0.297

###

# assay protocol: amyloid nucleation score (Sup35N fusion, yeast selection) (log enrichment); library NNK1; higher = more nucleation; inactive = no reads after selection
1 means recorded amyloid nucleation score is 0.8 or above; -1 means it is below 0.8.

>  <substance>
WSSWGGSTGVVRKREELCGR

>  <class>
-1

$$$$
>  <substance>
HILSSVLHSGVCMWTVITPY

>  <class>
-1

$$$$

-- ask Check this substance for amyloid nucleation score at or above 0.8: NTCTMCGWICAFLRPVFCVV
-- reply -1

-- ask Reported amyloid nucleation score at or above 0.8? YRFFCCVGHITSFVFLVGNV
-- reply 1

-- ask Identify whether the reported amyloid nucleation score of the following substance is 0.8 or greater: AIFKSITDPVLWSGLF
-- reply -1

-- ask Record DTINAGWSHLEARCLRFLHV ; criterion: amyloid nucleation score no lower than 0.8. Met?
-- reply -1

-- ask Is reported amyloid nucleation score greater than or equal to 0.8 here: SYLNPTVMILGFYP
-- reply 1

-- ask Does the substance NTTATLMGHTQPIYSIYSVF have recorded amyloid nucleation score that is 0.8 or more?
-- reply 1

-- ask Can GVSMFHRFSSHNWMCCWFVG be said to have amyloid nucleation score at or above 0.8?
-- reply 1

###

# assay protocol: amyloid nucleation score (Sup35N fusion, yeast selection) (log enrichment); library NNK1; higher = more nucleation; inactive = no reads after selection
amyloid nucleation score for assorted substances
Would you mind answering with just the numeric figure?

>  <substance>
TWRNNLKWHMYTYLLPAHIG

>  <measured attribute>
amyloid nucleation score

>  <result value>
-0.42

$$$$
>  <substance>
PLFCNNWSVLEFERRLGDMH

>  <measured attribute>
amyloid nucleation score

>  <result value>
1.03

$$$$
>  <substance>
VCKGVYNMPCSTPNLYDSAG

>  <measured attribute>
amyloid nucleation score

>  <result value>
-0.563

$$$$
>  <substance>
SIQLGSFWSGCEICCDYPPA

>  <measured attribute>
amyloid nucleation score

>  <result value>
-0.805

$$$$

Short answer for SYKGWVGLVLRVETDGNWSR : amyloid nucleation score was 2.28

Please fill in: amyloid nucleation score reported for HVGQAVSSCDSNLE = -0.365

amyloid nucleation score recorded for this substance, LLAGYCQSYIQLELSNSEHV , is -0.241

Please fill in: amyloid nucleation score reported for ILEVCRHRVIIIRNYLSYCA = 2.8

The recorded amyloid nucleation score for GLQEVCWC is -1.67

Per the records, this substance ( MLVCDWKTDLGNI ) has amyloid nucleation score equal to 0.811

substance HNIKVAGQMYANKSRICTSM , amyloid nucleation score observed: 0.412

Briefly, amyloid nucleation score measured for FRLMPEYVATYMLSLRMCQC : -0.565

Entry YWCAISSVSLKFLVMSYLSG — recorded amyloid nucleation score = -0.362

// recorded amyloid nucleation score for VVMVLSKGPDIRSNMRCSSV : -1.9

response.value for GKSCGHFWGRLNEGGQKLRV (field: amyloid nucleation score) = -0.772

// amyloid nucleation score value for YTCLHGGSGVPPYLFQEHYS : 0.193

// recorded amyloid nucleation score for DGSVYTPVIVY : 0.207

Item: NSMIVAHKLDCACPASAKDR | amyloid nucleation score: 4.94
